Every entry's value here was drawn from paper PMC3626704.

Target: T1, 5-Helix (HIV-1 group M subtype B, HXB2 (gp41 …, stabilised))
T1 construct: also called designed protein based on HIV-1 gp41
Assay: ELISA
Settings: one partner purified
VALUE KIND: phage ELISA signal OD450 (OD450)
Your answer should be a plain number; it is taken to be in OD450.

Record request: phage ELISA signal OD450 value, item 25F1 bivalent scFv on phage (scFv, V domains shown) VH: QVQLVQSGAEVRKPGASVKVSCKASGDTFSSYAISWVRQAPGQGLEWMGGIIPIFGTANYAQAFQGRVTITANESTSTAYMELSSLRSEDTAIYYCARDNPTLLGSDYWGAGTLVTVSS VL: DIQMTQSPSTLSASIGDRVTITCRASEGINNSLAWYQQKPGKAPKLLISRASRLASGAPSRFSGSGSGTDFTLTISSLQPDDFATYYCQQYSSTPHTFGGGTKLEIK
2.3

Record request: phage ELISA signal OD450 value, item 16F5 bivalent scFv on phage (scFv, V domains shown) VH: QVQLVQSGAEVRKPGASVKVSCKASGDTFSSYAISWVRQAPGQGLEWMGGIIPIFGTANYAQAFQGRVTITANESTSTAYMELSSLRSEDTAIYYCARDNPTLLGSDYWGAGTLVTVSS VL: DIQMTQSPSTLSASIGDRVTITCRASENINDHLAWYQQKPGKAPKLLISRAYRLASGAPSRFSGSGSGTDFTLTISSLQPDDFATYYCQQYADTPFTFGGGTKLEIK
3

Record request: phage ELISA signal OD450 value, item 25C5 bivalent scFv on phage (scFv, V domains shown) VH: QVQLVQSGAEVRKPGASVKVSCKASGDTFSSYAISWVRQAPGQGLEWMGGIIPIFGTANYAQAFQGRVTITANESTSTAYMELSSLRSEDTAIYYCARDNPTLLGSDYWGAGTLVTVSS VL: DIQMTQSPSTLSASIGDRVTITCRASEDIHDYLAWYQQKPGKAPKLLISRASRLASGAPSRFSGSGSGTDFTLTISSLQPDDFATYYCQQNDSYPYTFGGGTKLEIK
0.7
